# credit: ChEMBL document CHEMBL1131967

# Test system: SK-OV-3
# assayOverview: Antiproliferative activity against human SKOV-3 ovarian cell line
# Assay type: functional, cell-based
endpoint: IC50 (nM)

molecule	measuredOn	unitOfMeasurement	IC50
COc1cc([C@@H]2c3cc4c(cc3[C@@H](O[C@@H]3O[C@@H]5CO[C@@H](C)O[C@H]5[C@H](O)[C@H]3O)[C@H]3COC(=O)[C@H]23)OCO4)cc(OC)c1O [ETOPOSIDE]	SK-OV-3	nM	4900
Cc1cnc(NCCCN(C)C)c2c1[nH]c1ccc3cc(O)ccc3c12 [INTOPLICINE]	SK-OV-3	nM	450

[1] CN(C)CCNC(=O)c1cccc2cc3ccccc3nc12
[2] CCc1c2c(nc3ccc(O)cc13)-c1cc3c(c(=O)n1C2)COC(=O)[C@]3(O)CC [7-ETHYL-10-HYDROXYCAMPTOTHECIN]
Query: Between 1 and 2 , which one shows the smaller IC50 number? Indicate which entry you chose by stating its label.
Reply: 2
(2: 720 nM, 1: 2400 nM)
